Taken from patent US9642889B2.

Below are compounds with their IC50 as measured on cyclophilin A (Homo sapiens, UniProt P62937).
Sequence (P62937 whole entry, species assumed): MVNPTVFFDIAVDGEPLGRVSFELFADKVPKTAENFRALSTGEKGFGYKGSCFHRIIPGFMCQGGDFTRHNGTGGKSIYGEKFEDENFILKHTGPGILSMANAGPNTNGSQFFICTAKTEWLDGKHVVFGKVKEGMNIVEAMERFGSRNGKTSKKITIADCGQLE

Input line: Could you share what IC50 was measured for "COC[C@]1(C)/C=C/c2ccc3ccc(nc3c2)[C@@H](C)NC(=O)[C@@H]2CCCN(N2)C(=O)[C@H](C)NC(=O)[C@H](C(C)C)OC1=O" , tested on cyclophilin A (Homo sapiens, UniProt P62937)?
Output line: < 100 nM

Input line: Could you share what IC50 was measured for CC1/C=C/c2ccc3ccc(nc3c2)[C@@H](C)OC(=O)[C@@H]2CCCN(N2)C(=O)[C@H](C)NC(=O)[C@H](C(C)C)OC1 (single isomer, unassigned) [Compound 28] , tested on cyclophilin A (Homo sapiens, UniProt P62937)?
Output line: < 100 nM

Input line: Could you share what IC50 was measured for "CC(C)[C@@H]1OC(=O)C2(/C=C/c3ccc4ccc(nc4c3)[C@@H](C)NC(=O)[C@@H]3CCCN(N3)C(=O)[C@H](C)NC1=O)CCN(S(C)(=O)=O)CC2" , tested on cyclophilin A (Homo sapiens, UniProt P62937)?
Output line: < 100 nM

Input line: Could you share what IC50 was measured for "C[C@@H]1NC(=O)[C@H]([C@@H](C)O)OC(=O)C(C)(C)/C=C/c2ccc3ccc(nc3c2)[C@@H](C)NC(=O)[C@@H]2CCCN(N2)C1=O" , tested on cyclophilin A (Homo sapiens, UniProt P62937)?
Output line: < 100 nM

Input line: Could you share what IC50 was measured for CC1/C=C/c2cc3cc(ccc3cn2)[C@@H](C)NC(=O)[C@@H]2CCCN(N2)C(=O)[C@H](C)NC(=O)[C@H](C(C)C)OC1=O (some centres unmarked) , tested on cyclophilin A (Homo sapiens, UniProt P62937)?
Output line: < 100 nM

Input line: Could you share what IC50 was measured for "CC(C)[C@@H]1NCC(C)(C)/C=C/c2ccc3ccc(nc3c2)[C@@H](C)OC(=O)[C@@H]2CCCN(N2)C(=O)[C@H](C)NC1=O" , tested on cyclophilin A (Homo sapiens, UniProt P62937)?
Output line: < 100 nM

Input line: Could you share what IC50 was measured for "CC(C)[C@H]1C(=O)N[C@@H](C)C(=O)N2CCC[C@H](N2)C(=O)O[C@H](C)c2ccc3ccc(cc3n2)/C=C/C(C)(C)CN1C" , tested on cyclophilin A (Homo sapiens, UniProt P62937)?
Output line: 101 to 1000 nM

Input line: Could you share what IC50 was measured for "C[C@@H]1NC(=O)[C@H](C2CC2)OC(=O)C(C)(C)/C=C/c2ccc3ccc(nc3c2)[C@@H](C)NC(=O)[C@@H]2CCCN(N2)C1=O" , tested on cyclophilin A (Homo sapiens, UniProt P62937)?
Output line: < 100 nM

Input line: Could you share what IC50 was measured for CC(C)[C@@H]1OC(=O)C2(/C=C/c3ccc4ccc(nc4c3)[C@@H](C)NC(=O)[C@@H]3CCCN(N3)C(=O)[C@H](C)NC1=O)CCC(C)(O)CC2 (some centres unmarked) , tested on cyclophilin A (Homo sapiens, UniProt P62937)?
Output line: < 100 nM

Input line: Could you share what IC50 was measured for "CO[C@@H](C)[C@@H]1OC(=O)C(C)(C)/C=C/c2ccc3ccc(nc3c2)[C@@H](C)NC(=O)[C@@H]2CCCN(N2)C(=O)[C@H](C)NC1=O" , tested on cyclophilin A (Homo sapiens, UniProt P62937)?
Output line: 101 to 1000 nM

Input line: Could you share what IC50 was measured for CC(CC[C@@H]1C/C=C/c2cc3cc(ccc3cn2)[C@@H](C)NC(=O)[C@@H]2CCCN(N2)C(=O)[C@H](C)NC(=O)[C@H](C(C)C)OC1=O)=NOCCN1CCOCC1 (mixture of isomers) , tested on cyclophilin A (Homo sapiens, UniProt P62937)?
Output line: < 100 nM
